# assayed-target: T1, monkey MSLN on HEK293T-monkey MSLN recombinant cells (monkey)
# T1 construct: Full-length precursor as transfected; processing on the cell is not described; also called HEK293-monkey MSLN
# T1 chain: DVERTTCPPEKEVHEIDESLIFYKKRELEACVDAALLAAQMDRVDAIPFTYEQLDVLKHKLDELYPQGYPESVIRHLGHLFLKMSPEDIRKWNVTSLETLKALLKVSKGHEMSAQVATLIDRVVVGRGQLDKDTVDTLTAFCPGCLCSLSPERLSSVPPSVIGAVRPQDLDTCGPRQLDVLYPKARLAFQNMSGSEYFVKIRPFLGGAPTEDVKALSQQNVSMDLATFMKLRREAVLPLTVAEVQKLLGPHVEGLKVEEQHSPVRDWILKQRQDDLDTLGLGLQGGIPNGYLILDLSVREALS
# assay-notes: FACS, HEK293T-monkey MSLN cells
Entries annotated with measured Maximum_MFI
Numbers only; they are read as MFI.

{"binder": "F7.44.20-H13 (scFv, not shown: small tags and cut ends, also called S009-F7.44.20 humanized antibody VH2a + VL1) scFv: EVQLVQSGAEVKKPGASVKVSCKASGYTFTDYNMDWVRQAPGQGLEWMGDINPSTGGTIYNQKFSGRVTMTEDKSASTVYMELSSLRSEDTAVYYCARRRIGTGYFDVWGQGTTVTVSSGGGGSGGGGSGGGGSEIVLTQSPDFQSVTPKEKVTITCSASSSVISSYLSWYQQKPDQSPKLLIYRTSNLASGVPSRFSGSGSGTDFTLTINSLEAEDAATYYCHQWSSFPYTFGGGTKVEIK", "Maximum_MFI (MFI)": 9320}

Proceed to the following item.
Entry F7.44.20-H5 (scFv, not shown: small tags and cut ends, also called S009-F7.44.20 humanized antibody VH1a + VL1) scFv: EVQLVQSGAEVKKPGASVKVSCKASGYTFTDYNMDWVRQAPGQGLEWMGDINPSTGGTIYNQKFQGRVTMTEDKSTSTVYMELSSLRSEDTAVYYCARRRIGTGYFDVWGQGTTVTVSSGGGGSGGGGSGGGGSEIVLTQSPDFQSVTPKEKVTITCSASSSVISSYLSWYQQKPDQSPKLLIYRTSNLASGVPSRFSGSGSGTDFTLTINSLEAEDAATYYCHQWSSFPYTFGGGTKVEIK has what Maximum_MFI?
7780
